- Test system: Staphylococcus aureus Terajima
- ASSAY EXPLANATION: Antibacterial activity, agar-dilution MIC, organism No. 2
- Format: cell-based
- APPLIED CONDITIONS: Staphylococcus aureus; Organism No. 2, bouillon-agar; read-out: Minimum Inhibitory Concentration
RESULT TYPE: log10 of MIC (log10 of the value in µg/mL)

COMPOUND	NUMERIC RESULT
[C-]#[N+]C12CC3(/C=C/C(=O)Nc4cccc(C)c4)OC3C1O2 (centres unmarked)	-1.00
[C-]#[N+]C12CC3(/C=C/C(=O)Nc4ccc5c(c4)CCC5)OC3C1O2 (centres unmarked)	0.19
[C-]#[N+]C12CC3(/C=C/C(=O)N[C@@H](CCC(=O)OCc4ccccc4)C(=O)OCc4ccccc4)OC3C1O2 (some centres unmarked)	1.10
[C-]#[N+]C12CC3(/C=C/C(=O)OCc4c(C)cc(C)cc4C)OC3C1O2 (centres unmarked)	0.80
[C-]#[N+]C12CC3(/C=C/C(=O)NOC)OC3C1O2 (centres unmarked)	1.40
[C-]#[N+]C12CC3(/C=C/C(=O)Nc4cccc(Cl)c4)OC3C1O2 (centres unmarked)	-0.41
[C-]#[N+]C12CC3(/C=C/C(=O)Nc4cccc([N+](=O)[O-])c4)OC3C1O2 (centres unmarked)	-0.41
[C-]#[N+]C12CC3(/C=C/C(=O)Nc4ccccc4Cl)OC3C1O2 (centres unmarked)	0.19

----------
Recorded MIC values for a group of compounds are listed next.
- System: Proteus vulgaris HX-19
- ASSAY EXPLANATION: Antibacterial activity, agar-dilution MIC, organism No. 21
- Type: cell-based
- APPLIED CONDITIONS: Proteus vulgaris, HX19; Organism No. 21, bouillon-agar; read-out: Minimum Inhibitory Concentration

COMPOUND	MIC, µg/mL
[C-]#[N+]C12CC3(/C=C/C(=O)Nc4ccc(OCCC)cc4)OC3C1O2 (stereo not shown) [compound 73]	0.78
[C-]#[N+]C12CC3(/C=C/C(=O)Nc4cccc(O)c4)OC3C1O2 (stereo not shown) [compound 57]	0.78
[C-]#[N+]C12CC3(/C=C/C(=O)Nc4cccc(C(=O)OC)c4)OC3C1O2 (stereo not shown) [compound 50]	0.1
[C-]#[N+]C12CC3(/C=C/C(=O)OCC(=O)c4ccc([N+](=O)[O-])cc4)OC3C1O2 (stereo not shown) [compound 8]	12.5

----------
- Test system: Enterobacter cloacae 963
- ASSAY EXPLANATION: Antibacterial activity, agar-dilution MIC, organism No. 24
- Assay type: cell-based
- APPLIED CONDITIONS: Enterobacter cloacae, 963; Organism No. 24, bouillon-agar; read-out: Minimum Inhibitory Concentration

COMPOUND	MIC
[C-]#[N+]C12CC3(/C=C/C(=O)OCc4cccc([N+](=O)[O-])c4)OC3C1O2 (stereo not shown)	> 200 µg/mL
[C-]#[N+]C12CC3(/C=C/C(=O)Nc4ccc(C(=O)O)cc4)OC3C1O2 (stereo not shown)	> 200 µg/mL
[C-]#[N+]C12CC3(/C=C/C(=O)N[C@@H](Cc4ccccc4)C(=O)OCc4ccccc4)OC3C1O2 (stereo partly shown)	> 200 µg/mL
[C-]#[N+]C12CC3(/C=C/C(=O)Nc4ccc5c(c4)OCO5)OC3C1O2 (stereo not shown)	> 200 µg/mL
[C-]#[N+]C12CC3(/C=C/C(=O)Nc4cccc(C(=O)O)c4)OC3C1O2 (stereo not shown)	> 200 µg/mL
[C-]#[N+]C12CC3(/C=C/C(=O)N4CCCC4)OC3C1O2 (stereo not shown)	> 200 µg/mL
[C-]#[N+]C12CC3(/C=C/C(=O)Nc4ccc(Br)cc4)OC3C1O2 (stereo not shown)	> 200 µg/mL
[C-]#[N+]C12CC3(/C=C/C(=O)N[C@@H](CC(=O)OCc4ccccc4)C(=O)OCc4ccccc4)OC3C1O2 (stereo partly shown)	> 200 µg/mL
[C-]#[N+]C12CC3(/C=C/C(=O)OCc4c(C)cc(C)cc4C)OC3C1O2 (stereo not shown)	> 100 µg/mL
[C-]#[N+]C12CC3(/C=C/C(=O)NC4C(=O)N5C(C(=O)OCC(=O)c6ccc(Br)cc6)=C(C)CSC45)OC3C1O2 (stereo not shown)	> 100 µg/mL
[C-]#[N+]C12CC3(/C=C/C(=O)OCC(=O)c4cccc(OC)c4)OC3C1O2 (stereo not shown)	> 100 µg/mL
[C-]#[N+]C12CC3(/C=C/C(=O)OCC(=O)c4ccc(C)cc4)OC3C1O2 (stereo not shown)	> 100 µg/mL
[C-]#[N+]C12CC3(/C=C/C(=O)Nc4ccccc4OC)OC3C1O2 (stereo not shown)	> 200 µg/mL
[C-]#[N+]C12CC3(/C=C/C(=O)Nc4ccccc4N)OC3C1O2 (stereo not shown)	100 µg/mL
[C-]#[N+]C12CC3(/C=C/C(=O)N[C@@H](CCC(=O)OCc4ccccc4)C(=O)OCc4ccccc4)OC3C1O2 (stereo partly shown)	> 200 µg/mL
[C-]#[N+]C12CC3(/C=C/C(=O)N[C@@H](CC(=O)OC)C(=O)OC)OC3C1O2 (stereo partly shown)	> 200 µg/mL
